# Target: T1, human CD27 (human, UniProt P26842 21-260)
# T1 construct: also called hCD27; HsCD27
# Assay: flow cytometry MFI, CD4+ T cells of human PBMC, N=2 donors
Recorded EC50, one value per entry.
Reply with just the number (in nM).

hCD27.131A (mouse parental 131A) (antibody, mouse IgG1, V domains shown, Mouse IgG1 antibody; also called mouse hCD27.131A) VH: QIQLVQSGPELKKPGETVKISCKASGYTFTNYGMNWVKQAPGKGLKWMGWINTNTGEPTYAEEFKGRFAFSLETSATTAYLQINNLKNEDTATYFCAREGDAMDYWGQGTSVTVSS VL: QIVLTQSPAIMSASPGEKVTMTCSASSSVSYMHWYQQKSGTSPKRWIYDTSKLASGVPARFSGSGSGTSYSLTISSMEAEDAATYYCQQWNSYPFTFGSGTKLEIK : 0.0645
hCD27.131A VH8VL7 huIgG1 (antibody, V domains shown) VH: EIQLVQSGAEVKKPGASVKVSCKASGYTFTNYGMNWVKQAPGQGLKWMGWINTNTGEPTYAEEFKGRFTFTLDTSISTAYMELSSLRNEDTAVYYCAREGDAMDYWGQGTTVTVSS VL: EIVLTQSPATLSLSPGERATLSCSASSSVSYMHWYQQKPGQAPKRWIYDTSKLASGVPARFSGSGSGTSYSLTISSLEPEDFATYYCQQWNSYPFTFGQGTKLEIK : 0.115
hCD27.131A VH7VL6 huIgG1 (antibody, V domains shown) VH: EIQLVQSGAEVKKPGASVKISCKASGYTFTNYGMNWVKQAPGQGLKWMGWINTNTGEPTYAEEFKGRFTFTLDTSATTAYLEISSLRSEDTAVYYCAREGDAMDYWGQGTTVTVSS VL: EIVLTQSPATLSLSPGERATLSCSASSSVSYMHWYQQKPGQAPKRWIYDTSKLASGVPARFSGSGSGTDYSLTISSLEPEDFAVYYCQQWNSYPFTFGQGTKLEIK : 0.128

Q: // EC50 lookup, key: hCD27.131A VH7VL8 huIgG1 (antibody, V domains shown) VH: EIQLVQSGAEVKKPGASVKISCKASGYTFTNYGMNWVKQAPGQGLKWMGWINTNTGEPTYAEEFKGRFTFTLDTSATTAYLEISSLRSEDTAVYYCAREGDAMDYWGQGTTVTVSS VL: EIVLTQSPATLSASPGERVTLSCSASSSVSYMHWYQQKPGQAPKRWIYDTSKLASGVPARFSGSGSGTDYSLTISSMEPEDFAVYYCQQWNSYPFTFGQGTKLEIK
A: 0.118

Q: Recorded EC50 of hCD27.131A VH7VL7 huIgG1 (antibody, V domains shown) VH: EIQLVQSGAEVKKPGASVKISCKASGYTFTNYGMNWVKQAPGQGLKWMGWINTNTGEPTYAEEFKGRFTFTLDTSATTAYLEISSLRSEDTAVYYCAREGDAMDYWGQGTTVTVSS VL: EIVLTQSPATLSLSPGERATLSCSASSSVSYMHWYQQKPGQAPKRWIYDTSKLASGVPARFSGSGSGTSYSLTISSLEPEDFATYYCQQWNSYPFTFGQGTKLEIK , please.
A: 0.113

Q: Which EC50 is reported for this binder? Mouse Human Chimera CD27 131A-hIgG1 (antibody, V domains shown, also called chimeric mouse-human hCD27.131A huIgG1) VH: QIQLVQSGPELKKPGETVKISCKASGYTFTNYGMNWVKQAPGKGLKWMGWINTNTGEPTYAEEFKGRFAFSLETSATTAYLQINNLKNEDTATYFCAREGDAMDYWGQGTSVTVSS VL: QIVLTQSPAIMSASPGEKVTMTCSASSSVSYMHWYQQKSGTSPKRWIYDTSKLASGVPARFSGSGSGTSYSLTISSMEAEDAATYYCQQWNSYPFTFGSGTKLEIK
A: 0.0664
